Every entry's value here was drawn from ChEMBL document CHEMBL3988442.

EXPERIMENTAL TARGET: Shiga toxin 2 (Escherichia coli O157:H7) (UniProt P09385+P09386)
PROTOCOL TEXT: E. coli 0.157:H7 Shiga Toxin SOP - stx2 screening assay
Type: functional
Design: scale not given: direction of the effect not stated beside the values
APPLIED CONDITIONS: 30 µM
Everything with Percent Effect lower than -10% is Criterion not met; everything else, including exactly -10%, is Criterion met.

{"columns": ["MOLECULE", "CATEGORY"],
 "data": [
  ["CN1CCCc2cc(NC(=O)N3CCOC(C(N)=O)C3)ccc21 (stereo not drawn)", "Criterion not met"],
  ["CCc1nnc(CN(C)c2nc(C(C)C)nc3c2cnn3C)o1", "Criterion met"],
  ["CC(C(=O)Nc1ccc(N2CCCC2)nc1)n1ccnc1 (stereo not drawn)", "Criterion not met"],
  ["COc1ccc(C[C@H]2CN(c3nnc(C)s3)CC[C@@H]2OC)cc1", "Criterion not met"],
  ["COC[C@]12COC[C@H]1CN(Cc1cccnc1OC)C2", "Criterion not met"],
  ["O=S(=O)(N(Cc1ccccn1)C1CC1)N1CCCC1c1ccco1 (stereo not drawn)", "Criterion not met"],
  ["COCC(=O)NCc1cccc(Br)c1", "Criterion met"],
  ["Cc1nn(C)c(C)c1C1CCCN1C(=O)CCc1cscn1 (stereo not drawn)", "Criterion met"]
]}

* * *

Percent Effect values, listed per item
EXPERIMENTAL TARGET: Aspartate--tRNA(Asp/Asn) ligase (Mycobacterium tuberculosis (strain ATCC 25618 / H37Rv)); further: in the data most compounds retested in dose-response had high values
Sequence (whole entry): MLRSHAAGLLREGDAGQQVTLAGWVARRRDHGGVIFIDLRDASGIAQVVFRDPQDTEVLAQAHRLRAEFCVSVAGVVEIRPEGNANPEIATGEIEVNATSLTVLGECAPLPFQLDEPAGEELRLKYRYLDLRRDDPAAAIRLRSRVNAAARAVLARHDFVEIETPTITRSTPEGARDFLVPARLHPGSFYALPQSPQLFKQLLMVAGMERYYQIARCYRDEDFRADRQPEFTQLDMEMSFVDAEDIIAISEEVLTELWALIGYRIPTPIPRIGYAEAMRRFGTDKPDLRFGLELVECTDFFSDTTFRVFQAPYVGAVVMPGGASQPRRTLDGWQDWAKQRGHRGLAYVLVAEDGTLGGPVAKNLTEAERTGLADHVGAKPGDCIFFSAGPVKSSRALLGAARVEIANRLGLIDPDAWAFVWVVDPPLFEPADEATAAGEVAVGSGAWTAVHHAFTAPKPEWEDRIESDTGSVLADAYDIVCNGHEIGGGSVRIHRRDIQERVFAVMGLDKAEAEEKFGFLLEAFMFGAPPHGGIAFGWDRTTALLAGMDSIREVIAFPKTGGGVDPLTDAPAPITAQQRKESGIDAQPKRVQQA
PROTOCOL TEXT: Assay for Asp RNA synthetase-1 from Mycobacterium tuberculosis
Assay type: functional
Set-up: scale not given: direction of the effect not stated beside the values
APPLIED CONDITIONS: 30 µM
ASSAY ENDPOINT: Percent Effect (%)

{"columns": ["COMPOUND", "EXPERIMENTAL TARGET", "ASSAY VALUE"],
 "data": [
  ["COC(=O)c1sccc1NC(=O)C1CCCN1C(=O)c1ccco1 (stereo not drawn)", "Aspartate--tRNA(Asp/Asn) ligase (Mycobacterium tuberculosis (strain ATCC 25618 / H37Rv))", -0.808],
  ["Cc1ccccc1CN(C)Cc1nc2c(cnn2C)c(=O)[nH]1", "Aspartate--tRNA(Asp/Asn) ligase (Mycobacterium tuberculosis (strain ATCC 25618 / H37Rv))", 0.633],
  ["CSc1nccn1-c1cccc(C(=O)NCC2CC2)c1", "Aspartate--tRNA(Asp/Asn) ligase (Mycobacterium tuberculosis (strain ATCC 25618 / H37Rv))", 4.07],
  ["Cc1noc(C2CCCCN2C(=O)NC2CCCC2)n1 (stereo not drawn)", "Aspartate--tRNA(Asp/Asn) ligase (Mycobacterium tuberculosis (strain ATCC 25618 / H37Rv))", 5.06],
  ["Cc1ccc(NC2CCN(C(=O)c3n[nH]c4ccccc34)CC2)nn1", "Aspartate--tRNA(Asp/Asn) ligase (Mycobacterium tuberculosis (strain ATCC 25618 / H37Rv))", 0.985],
  ["Cn1cnc2c1C(COCC1CC1)CN(Cc1ccc3c(c1)OCO3)C2 (stereo not drawn)", "Aspartate--tRNA(Asp/Asn) ligase (Mycobacterium tuberculosis (strain ATCC 25618 / H37Rv))", 0.999],
  ["Cc1ccccc1CNC(=O)CN1CCN(Cc2nccn2C)CC1", "Aspartate--tRNA(Asp/Asn) ligase (Mycobacterium tuberculosis (strain ATCC 25618 / H37Rv))", 8.88],
  ["CCCOc1cc(C)ccc1NC(=O)NCCC(=O)N(C)C", "Aspartate--tRNA(Asp/Asn) ligase (Mycobacterium tuberculosis (strain ATCC 25618 / H37Rv))", 2.21],
  ["O=C(NCCCN1CCOCC1)Nc1cnc2cc(Cl)ccc2c1O", "Aspartate--tRNA(Asp/Asn) ligase (Mycobacterium tuberculosis (strain ATCC 25618 / H37Rv))", 1.35],
  ["CC(C)Cc1noc(CN2CCN(CCO)CC2)n1", "Aspartate--tRNA(Asp/Asn) ligase (Mycobacterium tuberculosis (strain ATCC 25618 / H37Rv))", -3.95],
  ["CCC1CCCCN1C(=O)c1ccc2[nH]nnc2c1 (stereo not drawn)", "Aspartate--tRNA(Asp/Asn) ligase (Mycobacterium tuberculosis (strain ATCC 25618 / H37Rv))", 6.94],
  ["CC1(C)OCC(CNC(=O)c2cnn(-c3cc(Cl)ccc3Cl)c2N)O1 (stereo not drawn)", "Aspartate--tRNA(Asp/Asn) ligase (Mycobacterium tuberculosis (strain ATCC 25618 / H37Rv))", -2.66],
  ["Cc1cc(=O)n(CC(=O)NCCC(C)C)c(-c2cccc(Cl)c2)n1", "Aspartate--tRNA(Asp/Asn) ligase (Mycobacterium tuberculosis (strain ATCC 25618 / H37Rv))", 12.2],
  ["Cc1cnn(C2CCCN(C(=O)Cc3ccc(-n4cccn4)cc3)C2)c1 (stereo not drawn)", "Aspartate--tRNA(Asp/Asn) ligase (Mycobacterium tuberculosis (strain ATCC 25618 / H37Rv))", -4.37],
  ["CN(Cc1ccco1)[C@@H]1CN(C(=O)c2ccnnc2)[C@@H]2CCCO[C@H]12", "Aspartate--tRNA(Asp/Asn) ligase (Mycobacterium tuberculosis (strain ATCC 25618 / H37Rv))", -2.73],
  ["COC(=O)N1C[C@H]2CC[C@@H]1CN(Cc1cscn1)C2", "Aspartate--tRNA(Asp/Asn) ligase (Mycobacterium tuberculosis (strain ATCC 25618 / H37Rv))", -3.45],
  ["CCc1ncc2c(n1)CN(CC(=O)NCCOc1ccccc1)CC2", "Aspartate--tRNA(Asp/Asn) ligase (Mycobacterium tuberculosis (strain ATCC 25618 / H37Rv))", 2.89],
  ["CCCS(=O)(=O)N1CCN(c2cc(-n3cnc(C)c3C)nc(C)n2)CC1", "Aspartate--tRNA(Asp/Asn) ligase (Mycobacterium tuberculosis (strain ATCC 25618 / H37Rv))", -3.39],
  ["Cc1ccc2oc(C(=O)N3CCc4nnc(N(C)C)cc4C3)cc2n1", "Aspartate--tRNA(Asp/Asn) ligase (Mycobacterium tuberculosis (strain ATCC 25618 / H37Rv))", 1.25],
  ["O=C(c1ccc[nH]1)N1CCn2cc(CN3CCCC3)nc2C1", "Aspartate--tRNA(Asp/Asn) ligase (Mycobacterium tuberculosis (strain ATCC 25618 / H37Rv))", -2.37],
  ["O=C(C1CC1)N1CCC(c2nc(O)c3c(n2)CCN(C2CCCC2)C3)C1 (stereo not drawn)", "Aspartate--tRNA(Asp/Asn) ligase (Mycobacterium tuberculosis (strain ATCC 25618 / H37Rv))", -2.25],
  ["Cc1nc(C)c(C(=O)OCCNc2ncccc2C#N)s1", "Aspartate--tRNA(Asp/Asn) ligase (Mycobacterium tuberculosis (strain ATCC 25618 / H37Rv))", 1.71],
  ["O=C(c1ccc(C2CCCO2)s1)N1CCN(c2ccccc2F)CC1 (stereo not drawn)", "Aspartate--tRNA(Asp/Asn) ligase (Mycobacterium tuberculosis (strain ATCC 25618 / H37Rv))", 1.1]
]}
